# viability at 24 h, 0.01 μM values compiled below
# Measurement notes: Drug combination experiment: viability of mock-infected RPE cells (CTG)
# Condition description: human
All answers are understood in %, so give the number only.

Compound	viability at 24 h, 0.01 μM, %
CC[C@H]1CN2CCc3cc(OC)c(OC)cc3[C@@H]2C[C@@H]1C[C@H]1NCCc2cc(OC)c(OC)cc21 [Emetine]	72

Then this compound:
Prompt: Given the entry COC1=CC(c2cc3ccccc3[nH]2)=N/C1=C\c1[nH]c(C)cc1C [Obatoclax] , report its measured viability at 24 h, 0.01 μM.
Response: 81

====

# EC50 values compiled below
# Tested on: HMPV-GFP
# Measurement notes: microbe, parasite or virus in culture
# Condition description: human metapneumovirus, RPE, 96 h, read-out: EC50-2 (reporter protein expression)
All answers are understood in nM, so give the number only.

Compound	Number
COC1=CC(c2cc3ccccc3[nH]2)=N/C1=C\c1[nH]c(C)cc1C [Obatoclax]	120

Then this compound:
Prompt: State its EC50 on HMPV-GFP: CC[C@H]1CN2CCc3cc(OC)c(OC)cc3[C@@H]2C[C@@H]1C[C@H]1NCCc2cc(OC)c(OC)cc21 [Emetine]
Response: 140

====

# Measurement notes: Toxicity in TZM-bl cells, Cell Tox Green (CTxG) assay (CC50)
# Condition description: human, mock-infected TZM-bl cells
# CC50 at 24 h values compiled below

Compound	Property name	Result
Cc1ccc(C(=O)Nc2ccc(S(=O)(=O)O)c3cc(S(=O)(=O)O)cc(S(=O)(=O)O)c23)cc1NC(=O)c1cccc(NC(=O)Nc2cccc(C(=O)Nc3cc(C(=O)Nc4ccc(S(=O)(=O)O)c5cc(S(=O)(=O)O)cc(S(=O)(=O)O)c45)ccc3C)c2)c1 [Suramin]	CC50 at 24 h	> 30 µM

Then this compound:
Prompt: Given the entry Cc1c(-c2ccc(-c3ccccc3F)cc2)nc2ccc(F)cc2c1C(=O)O [Brequinar] , report its measured CC50 at 24 h.
Response: > 30 µM

====

# pEC50 values compiled below
# Test system: RVFV-RFP
# Measurement notes: microbe, parasite or virus in culture
# Condition description: Rift Valley fever virus, RPE, 24 h, read-out: EC50-2 (reporter protein expression)
// scale note: pEC50 = -log10(conc_M); give the bare number

CC[C@H]1CN2CCc3cc(OC)c(OC)cc3[C@@H]2C[C@@H]1C[C@H]1NCCc2cc(OC)c(OC)cc21 6.37

Then this compound:
Prompt: Given the entry "COC1=CC(c2cc3ccccc3[nH]2)=N/C1=C\c1[nH]c(C)cc1C" , report its measured pEC50.
Response: 6.49

====

# Test system: HSV-2
# Measurement notes: microbe, parasite or virus in culture
# Condition description: Human alphaherpesvirus 2, RPE, 72 h, read-out: EC50-1 (CTG assay)
Property name: EC50 (nM)
All answers are understood in nM, so give the number only.

Below are worked cases with known answers.
Molecule	EC50 [nM]
CC[C@H]1CN2CCc3cc(OC)c(OC)cc3[C@@H]2C[C@@H]1C[C@H]1NCCc2cc(OC)c(OC)cc21 [Emetine]	30
Nc1nc(O)c2ncn(COC(CO)CO)c2n1 [Ganciclovir]	40
O=C(Nc1ccc([N+](=O)[O-])cc1Cl)c1cc(Cl)ccc1O [Niclosamide]	430

Then this molecule:
Prompt: Given the entry COC1=CC(c2cc3ccccc3[nH]2)=N/C1=C\c1[nH]c(C)cc1C [Obatoclax] , report its measured EC50.
Response: 100

====

# viability at 24 h, 0.15 μM values compiled below
# Measurement notes: Drug combination experiment: viability of mock-infected RPE cells (CTG)
# Condition description: human
All answers are understood in %, so give the number only.

COC1=CC(c2cc3ccccc3[nH]2)=N/C1=C\c1[nH]c(C)cc1C 81

Prompt: Given the entry "CC[C@H]1CN2CCc3cc(OC)c(OC)cc3[C@@H]2C[C@@H]1C[C@H]1NCCc2cc(OC)c(OC)cc21" , report its measured viability at 24 h, 0.15 μM.
Response: 76

Value source: paper PMC6832696
